// provenance: patent US4136194A

Test: Acute oral toxicity in rats
Details: rat, in vivo, single dose, female rats, 10 days, limits after the slash
The entries below come with measured LD50 at 240 h values attached.
Enter your answer as a number in mg/kg; do not include the unit.

COc1ccc2c(c1)c(CC(=O)O)c(C)n2C(=O)c1ccc(Cl)cc1 [Indomethacin]; 25

The compound listed as COc1ccc2c(c1)c(CC(=O)OCC(C(=O)O)c1ccccc1)c(C)n2C(=O)c1ccc(Cl)cc1 (centres unmarked) [Compound of Invention] shows LD50 at 240 h equal to 140
